- Experiment Notes: Inhibition of Bacillus stearothermophilus alpha-glucosidase
- Design: species or system Geobacillus stearothermophilus
pIC50: −log10 of the molar value.
Measured Attribute: pIC50

Mol Smiles | Observed
CCCCCC1(CCCCC)O[C@H]2[C@H](OC(=O)/C=C/c3ccc(O)c(O)c3)C[C@]3(C[C@H]2O1)OC(CCCCC)(CCCCC)OC3=O | 5.96

I = CCCCCCCC[C@H]1OC(=O)[C@@]2(C[C@@H](O)[C@@H](O)[C@H](OC(=O)/C=C/c3ccc(O)c(O)c3)C2)O1
II = CCCCC1(CCCC)O[C@H]2[C@H](OC(=O)/C=C/c3ccc(O)c(O)c3)C[C@]3(C[C@H]2O1)OC(CCCC)(CCCC)OC3=O
III = CCCCCCCCC1(CCCCCCCC)OC(=O)[C@@]2(C[C@@H](O)[C@@H](O)[C@H](OC(=O)/C=C/c3ccc(O)c(O)c3)C2)O1
q: Please list these molecules in decreasing order of pIC50. Please list the labels in the order you were asked to rank them.
a: II, III, I

====

- Experiment Notes: Inhibition of Saccharomyces cerevisiae alpha-glucosidase
Measured Attribute: IC50 (nM)

The following compounds have reported results that may help.
Mol Smiles | IC50 (nM)
CCCCCCCC[C@@H]1OC(=O)[C@]2(C[C@@H](OC(=O)/C=C/c3ccc(O)c(O)c3)[C@@H]3O[C@H](CCCCCCCC)O[C@@H]3C2)O1 | 1000
CCCCCCCC[C@H]1O[C@H]2[C@H](OC(=O)/C=C/c3ccc(O)c(O)c3)C[C@]3(C[C@H]2O1)O[C@@H](CCCCCCCC)OC3=O | 300
CCCC1(CCC)O[C@H]2[C@H](OC(=O)/C=C/c3ccc(O)c(O)c3)C[C@]3(C[C@H]2O1)OC(CCC)(CCC)OC3=O | 3300

P = CC1(C)OC(=O)[C@@]2(C[C@@H](O)[C@@H](O)[C@H](OC(=O)/C=C/c3ccc(O)c(O)c3)C2)O1
Q = CCCCCC1(CCCCC)O[C@H]2[C@H](OC(=O)/C=C/c3ccc(O)c(O)c3)C[C@]3(C[C@H]2O1)OC(CCCCC)(CCCCC)OC3=O
R = CCCCCCC1(CCCCCC)O[C@H]2[C@H](OC(=O)/C=C/c3ccc(O)c(O)c3)C[C@]3(C[C@H]2O1)OC(CCCCCC)(CCCCCC)OC3=O
S = CCCCCC1(CCCCC)OC(=O)[C@@]2(C[C@@H](O)[C@@H](O)[C@H](OC(=O)/C=C/c3ccc(O)c(O)c3)C2)O1
q: Write the entries in order, lowest recorded IC50 first. Please, when replying, give the labels in the order that was requested.
a: R, Q, S, P

====

- Experiment Notes: Inhibition of Saccharomyces cerevisiae alpha-glucosidase
Measured Attribute: IC50 (µM)

In the examples that follow, each entry is paired with its recorded IC50.
Compound | Result Units | IC50
CCCCCCCCC1(CCCCCCCC)O[C@H]2[C@H](OC(=O)/C=C/c3ccc(O)c(O)c3)C[C@]3(C[C@H]2O1)OC(CCCCCCCC)(CCCCCCCC)OC3=O | µM | 0.5
CCCC1(CCC)OC(=O)[C@@]2(C[C@@H](O)[C@@H](O)[C@H](OC(=O)/C=C/c3ccc(O)c(O)c3)C2)O1 | µM | 19.4
CCCCCCCCC1(CCCCCCCC)OC(=O)[C@@]2(C[C@@H](O)[C@@H](O)[C@H](OC(=O)/C=C/c3ccc(O)c(O)c3)C2)O1 | µM | 3
C[C@H]1O[C@H](O[C@H]2[C@H](O)[C@@H](O)[C@@H](O[C@H]3[C@H](O)[C@@H](O)C(O)O[C@@H]3CO)O[C@@H]2CO)[C@H](O)[C@@H](O)[C@@H]1N[C@H]1C=C(CO)[C@@H](O)[C@H](O)[C@H]1O (some centres not stated) [ACARBOSE] | µM | 0.1
CCCCCCC1(CCCCCC)OC(=O)[C@@]2(C[C@@H](O)[C@@H](O)[C@H](OC(=O)/C=C/c3ccc(O)c(O)c3)C2)O1 | µM | 3.4

a = CC1(C)OC2Cc3c(O)cc(O)cc3O[C@@H]2c2cc(O)c(O)cc21 (some centres not stated)
b = CCC1(CC)OC(=O)[C@@]2(C[C@@H](O)[C@@H](O)[C@H](OC(=O)/C=C/c3ccc(O)c(O)c3)C2)O1
q: Two entries are listed, a and b . Which one carries the higher IC50? Answer = label.
a: b
(b: 71.1 µM, a: 18.5 µM)
